Assay: self-splicing fitness, log relative to wild type (ln ratio); higher = more splicing; Tetrahymena group I intron in knt gene, E. coli kanamycin selection, DiMSum; sequences stand for … in CUCUCU…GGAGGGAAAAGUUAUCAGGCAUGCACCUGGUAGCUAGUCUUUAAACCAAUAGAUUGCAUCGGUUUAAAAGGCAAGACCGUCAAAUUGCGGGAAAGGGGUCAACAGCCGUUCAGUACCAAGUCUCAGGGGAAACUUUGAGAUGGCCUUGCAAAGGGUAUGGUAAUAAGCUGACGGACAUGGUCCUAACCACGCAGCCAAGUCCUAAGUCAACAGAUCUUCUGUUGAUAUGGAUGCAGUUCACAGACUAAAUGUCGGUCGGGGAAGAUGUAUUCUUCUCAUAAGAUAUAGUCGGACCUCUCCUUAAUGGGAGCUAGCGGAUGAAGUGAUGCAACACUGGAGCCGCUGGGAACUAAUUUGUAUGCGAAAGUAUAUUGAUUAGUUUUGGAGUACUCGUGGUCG;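 note: selection with 25 µg/mL kanamycin versus none on LB agar overnight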
Conditions: 30 °C
Here, each record is paired with measured self-splicing fitness (ln) data.
measured.property: self-splicing fitness (ln)

sequence.code	endpoint.result
UCCGAGCAAUAUUACGGGCC	-3.8
GGUCAGCAAUAUUACGUUUG	-2.61
GUUAAGCAAUAUUACGCCUG	-0.512
AGGUAGCAAUAUUACGGUAA	-2.12
GGACAGCAAUAUUACGUUCC	-2.58
AUAGAGCAAUAUUACGAUCG	-1.08
CGGGAGCAAUAUUACGAAUU	-3.16
GUCCAGCAAUAUUACGUGAA	0.0486
CAGUAGCAAUAUUACGGUUC	-2.7
AAAAAGCAAUAUUACGAACG	-0.0786
CGACAGCAAUAUUACGGUGC	-3.61
GUAAAGCAAUAUUACGAUAC	-0.815
UUCUAGCAAUAUUACGAGAG	-2.3
AUCCAGCAAUAUUACGAUGA	-0.862
UUCCAGCAAUAUUACGGAGC	-4.31
CACAAGCAAUAUUACGUCAA	-3.14

----------
Assay: self-splicing fitness, log relative to wild type (ln ratio); higher = more splicing; Tetrahymena group I intron in knt gene, E. coli kanamycin selection, DiMSum; sequences stand for … in CUCUCU…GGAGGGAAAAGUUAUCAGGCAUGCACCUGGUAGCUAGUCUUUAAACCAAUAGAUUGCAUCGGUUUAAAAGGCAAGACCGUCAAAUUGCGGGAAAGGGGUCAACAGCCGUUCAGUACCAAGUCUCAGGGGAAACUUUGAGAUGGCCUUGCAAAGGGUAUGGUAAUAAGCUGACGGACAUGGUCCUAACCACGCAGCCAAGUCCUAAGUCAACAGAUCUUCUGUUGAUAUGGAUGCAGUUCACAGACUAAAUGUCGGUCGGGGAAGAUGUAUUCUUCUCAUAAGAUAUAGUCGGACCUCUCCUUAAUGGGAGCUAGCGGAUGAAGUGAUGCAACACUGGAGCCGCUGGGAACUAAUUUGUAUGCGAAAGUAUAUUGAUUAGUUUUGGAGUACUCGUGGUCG
Conditions: 30 °C
Please enter MET where self-splicing fitness (ln) is greater than or equal to -2, and NOT MET where it is lower.

sequence.code	class
UAGGAGCAAUAUUACGAGUA	NOT MET
AUUGAGCAAUAUUACGCAAA	NOT MET
AGUAAGCAAUAUUACGAAUU	NOT MET
UUGGAGCAAUAUUACGCAAG	MET
CGGAAGCAAUAUUACGCCUC	NOT MET
GUGCAGCAAUAUUACGGGUA	NOT MET
AGUUAGCAAUAUUACGCCUU	MET
AUGAAGCAAUAUUACGCGUA	MET
ACCCAGCAAUAUUACGGCCG	NOT MET
GCCCAGCAAUAUUACGGCUU	MET
AAUAAGCAAUAUUACGUACU	MET
UCGCAGCAAUAUUACGUGAU	NOT MET
UAGCAGCAAUAUUACGCGCG	MET
ACUAAGCAAUAUUACGUGUU	NOT MET
